- Test system: T-47D breast
- assayDetails: NCI-60 one-dose screen, 48 h (100 = growth as untreated, 0 = no growth, -100 = all killed)
- setupConditions: 10 µM unless noted
The panel holds about 83,000 compounds, 20% with a hit somewhere; the sample as a whole holds those more often.
growth values for the molecules below.
Number in %, nothing else.

Recorded growth, per entry:
>>> endpointvalue("CN1CCN(Cc2ccc(NC(=O)c3cncc(C#Cc4cnc5ccc(N6CCN(C)CC6)nn45)c3)cc2C(F)(F)F)CC1")
110
>>> endpointvalue("CCOC(=O)c1c(N)c(C#N)cn1-c1cc(OC)c(OC)c(OC)c1")
112
>>> endpointvalue("CN1CCN(Cc2ccc(NC(=O)c3cncc(C#Cc4cnc5ccc(OCC(C)(C)O)nn45)c3)cc2C(F)(F)F)CC1")
-17.6

Now take the following molecule into account.
Q. // lookup growth | system=T-47D breast | key= "CN1CCN(Cc2ccc(NC(=O)c3cncc(C#Cc4cnc5ccc(NCCCO)nn45)c3)cc2C(F)(F)F)CC1"
A. 1.95
